Entries and their Activity
- protocol notes: Stability of compound at pH 4.0 assessed as change in purity at 1 mg/ml incubated for 12 hrs by HPLC analysis
- Format: physicochemical
- cond: buffer, pH 4, 12 h

{"columns": ["smiles", "uom", "Activity"],
 "data": [
  ["CC(C)C(=O)OC[C@@]1(F)O[C@@H](n2ccc(=O)n(COC(=O)[C@@H](N)C(C)C)c2=O)[C@H](OC(=O)C(C)C)[C@@H]1OC(=O)C(C)C.Cl", "%", -1.2],
  ["CC(C)C(=O)OC[C@@]1(F)O[C@@H](n2ccc(=O)n(COC(=O)[C@@H]3CCCN3C)c2=O)[C@H](OC(=O)C(C)C)[C@@H]1OC(=O)C(C)C.Cl", "%", -29.8],
  ["CC(C)C(=O)OCn1c(=O)ccn([C@@H]2O[C@](F)(COC(=O)C(C)C)[C@@H](OC(=O)C(C)C)[C@H]2OC(=O)C(C)C)c1=O", "%", 0]
]}
